Recorded Ki values for a group of compounds are listed next.
Test system: GABA A receptor alpha-3/beta-2/gamma-2 (Homo sapiens, UniProt P18507+P34903+P47870)
Sequence (P47870 whole entry): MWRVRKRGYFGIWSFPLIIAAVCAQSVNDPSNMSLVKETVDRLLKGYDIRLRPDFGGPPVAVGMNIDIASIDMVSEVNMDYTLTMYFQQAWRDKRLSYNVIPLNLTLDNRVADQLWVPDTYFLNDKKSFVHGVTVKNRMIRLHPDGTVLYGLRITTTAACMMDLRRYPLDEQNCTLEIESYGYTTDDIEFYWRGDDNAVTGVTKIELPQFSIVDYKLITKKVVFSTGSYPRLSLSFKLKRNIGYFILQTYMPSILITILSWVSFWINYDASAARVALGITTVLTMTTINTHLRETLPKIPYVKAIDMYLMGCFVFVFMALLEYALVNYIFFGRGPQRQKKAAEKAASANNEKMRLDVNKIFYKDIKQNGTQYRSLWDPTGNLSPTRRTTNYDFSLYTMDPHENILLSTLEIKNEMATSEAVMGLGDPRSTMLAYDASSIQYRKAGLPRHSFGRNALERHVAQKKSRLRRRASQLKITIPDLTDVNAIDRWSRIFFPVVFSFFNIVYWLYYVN
Sequence (P18507 whole entry): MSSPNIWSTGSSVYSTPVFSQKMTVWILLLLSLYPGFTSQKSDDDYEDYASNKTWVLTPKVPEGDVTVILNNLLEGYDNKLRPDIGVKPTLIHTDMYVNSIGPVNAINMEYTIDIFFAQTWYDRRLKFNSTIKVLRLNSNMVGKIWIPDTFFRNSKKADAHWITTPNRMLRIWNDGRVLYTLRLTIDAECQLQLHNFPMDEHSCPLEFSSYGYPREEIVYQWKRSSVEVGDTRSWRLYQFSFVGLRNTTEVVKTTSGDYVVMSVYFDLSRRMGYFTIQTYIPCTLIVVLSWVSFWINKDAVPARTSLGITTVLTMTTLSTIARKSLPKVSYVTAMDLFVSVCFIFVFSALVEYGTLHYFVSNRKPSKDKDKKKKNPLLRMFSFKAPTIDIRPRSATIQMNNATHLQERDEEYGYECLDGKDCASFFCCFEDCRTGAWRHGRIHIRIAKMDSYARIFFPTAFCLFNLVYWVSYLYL
Sequence (P34903 whole entry): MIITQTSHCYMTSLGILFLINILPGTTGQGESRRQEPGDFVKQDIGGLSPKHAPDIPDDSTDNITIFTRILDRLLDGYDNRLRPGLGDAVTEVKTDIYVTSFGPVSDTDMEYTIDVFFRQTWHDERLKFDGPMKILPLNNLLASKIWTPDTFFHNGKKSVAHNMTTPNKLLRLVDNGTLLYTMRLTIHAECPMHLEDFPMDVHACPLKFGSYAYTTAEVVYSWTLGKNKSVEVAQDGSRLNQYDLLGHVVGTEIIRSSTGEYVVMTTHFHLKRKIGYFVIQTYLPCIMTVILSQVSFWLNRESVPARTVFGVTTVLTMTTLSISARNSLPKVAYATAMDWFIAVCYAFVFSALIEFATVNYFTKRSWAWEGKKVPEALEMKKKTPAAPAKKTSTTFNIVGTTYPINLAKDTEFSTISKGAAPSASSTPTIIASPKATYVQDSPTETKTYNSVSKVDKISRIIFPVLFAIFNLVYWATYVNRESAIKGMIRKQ
Test method notes: Displacement of [3H]Flumazenil from human GABA-Aalpha3 receptor plus beta-2-gamma-2 expressed in HEK293 cells

Structure as smiles	Ki
CCOC(=O)c1cnc2ccc(Cc3ccccc3)cc2c1O	7.2 nM

**Q:** Quick one: Ki of CCc1ccc2ncc(C(=O)OCCC(C)C)c(O)c2c1 ?
**A:** 89 nM

**Q:** Field entry: CCOC(=O)c1cnc2ccc(Br)cc2c1O
**A:** 26 nM
